Consider the following molecules and their measured Selectivity EC50 5-HT2C/EC50 5-HT2A readings.
target: UniProt:P28223
test_method_notes: cell-based
Format: cell-based
condition_set: Ca2+/Fluo-4 assay; bounds are conservative estimates
Marks after values point to notes of the source that are not given here.

chemical_smiles	Selectivity EC50 5-HT2C/EC50 5-HT2A
CCOc1cc([C@H]2CCCNC2)c(OCC)cc1CC.Cl	>3^e
CCOc1cc(C(F)(F)F)c(OCC)cc1[C@@H]1CCCNC1.Cl	>300^e

Reported Selectivity EC50 5-HT2C/EC50 5-HT2A, molecule COc1cc([C@H]2CCCNC2)ccc1C(F)(F)F.Cl : ____
>50^e

So what's the measured Selectivity EC50 5-HT2C/EC50 5-HT2A for this one? CCOc1cc(CC)c(OC)cc1[C@@H]1CCCNC1
>1,000^e

# input molecule: CCOc1cc(CC)c(OC)cc1[C@H]1CCCNC1 ; wanted: its Selectivity EC50 5-HT2C/EC50 5-HT2A
>10^e

Values from patent US11642336B2
